Data provenance: the supplement of paper PMC4466140

TARGET_ENTITY: ScBzz1-D2
RUN_DESCRIPTION: SPOT peptide array binding signal intensity (averaged, normalized) (arbitrary units (background-subtracted, floor 0; scale differs between SH3 domains)); higher = stronger binding of the SH3 domain to the peptide
// SPOT peptide array binding signal intensity lookup, one value per entry
Number only, please.

binder=NIKVLLNPKLGKPVK measured=207
binder=VPPVPLPFGIPPFPM measured=2.5
binder=FLIKFTPKFPQSIDH measured=611

Which SPOT peptide array binding signal intensity value belongs to `PKRRAPPPVPKKPSS` ?
83.5

Proceed to `RKNRAPPQRPRFNRE`
26

Proceed to `KLSRGRYGLPLSSRP`
20

Proceed to `SSSSSPPPLPTRRDH`
12

Proceed to `NMLKKKPLKKPLKRF`
22

Proceed to `NPNRRAPRRPLSTQH`
8

Proceed to `RPVPRRPSQPLNTLS`
25.8
